All figures here come from ChEMBL document CHEMBL1961873.

target: G protein-coupled receptor kinase 6 (Homo sapiens); conditions: at 1 µM;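 further: values are averaged percent inhibition of GRK6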
observable: inhibition (%)
// return numeric value only (unit: %, not printed)

Prompt: Which measured inhibition value corresponds to "CCc1cccc(NC(=O)Nc2ccc(Oc3ccc4nc(NC(=O)OC)[nH]c4c3)cc2)c1" ?
Completion: 2.68

Prompt: Which measured inhibition value corresponds to "[O-][S+]1CCN(Cc2ccc(-c3ccc4ncnc(Nc5ccc(OCc6ccccc6)c(F)c5)c4c3)o2)CC1" ?
Completion: -2.01

Prompt: Which measured inhibition value corresponds to "COc1ccc(-c2coc3ncnc(N)c23)cc1" ?
Completion: 1.56

###

Consider the following molecules; for each one, report its inhibition.
Target: Cytoplasmic tyrosine-protein kinase BMX (Homo sapiens)
Sequence (whole entry): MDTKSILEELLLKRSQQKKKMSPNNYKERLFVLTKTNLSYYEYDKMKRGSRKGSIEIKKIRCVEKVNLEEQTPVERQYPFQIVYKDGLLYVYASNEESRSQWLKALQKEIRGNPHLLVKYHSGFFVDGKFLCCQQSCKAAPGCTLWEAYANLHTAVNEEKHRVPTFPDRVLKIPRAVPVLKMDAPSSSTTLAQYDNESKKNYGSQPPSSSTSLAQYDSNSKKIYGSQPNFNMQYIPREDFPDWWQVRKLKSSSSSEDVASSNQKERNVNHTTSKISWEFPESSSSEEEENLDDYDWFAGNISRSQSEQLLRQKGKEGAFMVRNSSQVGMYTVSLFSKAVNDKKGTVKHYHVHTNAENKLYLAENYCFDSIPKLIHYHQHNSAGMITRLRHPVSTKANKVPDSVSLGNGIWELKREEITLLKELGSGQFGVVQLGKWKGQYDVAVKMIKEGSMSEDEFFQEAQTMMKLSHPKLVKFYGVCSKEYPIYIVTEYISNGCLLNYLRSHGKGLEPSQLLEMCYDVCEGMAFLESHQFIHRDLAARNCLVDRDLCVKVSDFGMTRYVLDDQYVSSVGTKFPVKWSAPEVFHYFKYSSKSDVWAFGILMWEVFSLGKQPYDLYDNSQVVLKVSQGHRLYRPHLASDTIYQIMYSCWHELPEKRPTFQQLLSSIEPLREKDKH
Details: at 1 µM
// return numeric value only (unit: %, not printed)

Prompt: # query: inhibition | item "O=C1Nc2ccc(C(=O)c3ccco3)cc2C1=Cc1cc(Cl)c(O)c(Cl)c1" | system: Cytoplasmic tyrosine-protein kinase BMX (Homo sapiens)
Completion: 5.27

Prompt: # query: inhibition | item "COc1cccc(-n2ncc3c(N/N=C/c4cccc(F)c4)ncnc32)c1" | system: Cytoplasmic tyrosine-protein kinase BMX (Homo sapiens)
Completion: 13.8

Prompt: # query: inhibition | item "CN(C)c1cc2c(Nc3ccc4nc(Cc5ccccc5)[nH]c4c3)ncnc2cn1" | system: Cytoplasmic tyrosine-protein kinase BMX (Homo sapiens)
Completion: 21.5

Prompt: # query: inhibition | item "O=C1NC(=O)C(c2ccc(Cl)cc2)=C1Nc1ccc(Cl)c(C(=O)O)c1" | system: Cytoplasmic tyrosine-protein kinase BMX (Homo sapiens)
Completion: -3.08

Prompt: # query: inhibition | item "Cc1ccc(NC(=O)c2ccnc(N3CCCC3)c2)cc1-c1ccc(C(=O)NCC2CC2)cc1" | system: Cytoplasmic tyrosine-protein kinase BMX (Homo sapiens)
Completion: 4.79

Prompt: # query: inhibition | item "NS(=O)(=O)c1cccc(-c2ccc3c(NC(=O)C4CC4)n[nH]c3c2)c1" | system: Cytoplasmic tyrosine-protein kinase BMX (Homo sapiens);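 further: reported value is the mean percent inhibition of BMX, from the GSK PKIS kinase inhibitor screen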
Completion: 0.66

###

target: Cyclin-dependent kinase 4 (Homo sapiens) (UniProt P11802); settings: at 1 µM;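 further: enzyme tested as the CDK4–cyclin D complex, with the value reported as mean percent inhibition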
Sequence (P11802 whole entry): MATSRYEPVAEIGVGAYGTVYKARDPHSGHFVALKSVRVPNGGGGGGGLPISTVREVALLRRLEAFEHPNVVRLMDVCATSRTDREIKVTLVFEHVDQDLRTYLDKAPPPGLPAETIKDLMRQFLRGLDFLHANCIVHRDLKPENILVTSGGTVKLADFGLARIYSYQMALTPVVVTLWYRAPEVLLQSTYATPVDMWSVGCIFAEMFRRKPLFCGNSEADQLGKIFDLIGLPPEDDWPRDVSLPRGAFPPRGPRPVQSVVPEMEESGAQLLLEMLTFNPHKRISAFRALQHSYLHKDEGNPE
Class boundaries, taken from values of inhibition, are as follows: label 0 = under 3%, label 1 = from 3% up to 10%, label 2 = 10% and over

Prompt: Please classify: "CS(=O)(=O)CCNCc1ccc(-c2ccc3ncnc(Nc4ccc(OCc5cccc(F)c5)c(C(F)(F)F)c4)c3c2)o1"
Completion: label 0

Prompt: Please classify: "CS(=O)(=O)CCNCc1ccc(-c2ccc3ncnc(Nc4ccc(OCc5ccccc5)c(Cl)c4)c3c2)o1"
Completion: label 1

Prompt: Please classify: "COc1cc(C=NNc2ncnc3c2cnn3-c2ccccc2)ccc1O"
Completion: label 2

Prompt: Please classify: "CCn1c(-c2nonc2N)nc2ccncc21"
Completion: label 1

Prompt: Please classify: "NS(=O)(=O)c1ccc(N/N=C2\C(=O)Nc3ccc(C(=O)NCCc4c[nH]cn4)cc32)cc1"
Completion: label 2

Prompt: Please classify: COc1ccc2cc(-c3c(-c4ccncc4)nc(-c4ccc([S+](C)[O-])cc4)n3C)ccc2c1 (stereo not given)
Completion: label 0

Prompt: Please classify: "Cn1cc(C=C2C(=O)Nc3cccnc32)c2ccccc21"
Completion: label 2

Prompt: Please classify: "COc1cc2c(cc1Nc1nc(N3CCc4ccccc43)c3cc[nH]c3n1)N(C(=O)CN(C)C)CC2"
Completion: label 1

Prompt: Please classify: CC1=C(C(=O)Nc2ccc3[nH]ncc3c2)C(c2ccc3ccccc3c2)CC(=O)N1 (stereo not given)
Completion: label 0

Prompt: Please classify: "CCN1CCC(CC(=O)Nc2n[nH]c3nc(-c4cccs4)c(Br)cc23)CC1"
Completion: label 2

###

target: Tyrosine-protein kinase JAK3 (Homo sapiens) (UniProt P52333); conditions: at 0.1 µM;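 further: values reported are mean percent inhibition of JAK3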
Sequence (P52333 whole entry): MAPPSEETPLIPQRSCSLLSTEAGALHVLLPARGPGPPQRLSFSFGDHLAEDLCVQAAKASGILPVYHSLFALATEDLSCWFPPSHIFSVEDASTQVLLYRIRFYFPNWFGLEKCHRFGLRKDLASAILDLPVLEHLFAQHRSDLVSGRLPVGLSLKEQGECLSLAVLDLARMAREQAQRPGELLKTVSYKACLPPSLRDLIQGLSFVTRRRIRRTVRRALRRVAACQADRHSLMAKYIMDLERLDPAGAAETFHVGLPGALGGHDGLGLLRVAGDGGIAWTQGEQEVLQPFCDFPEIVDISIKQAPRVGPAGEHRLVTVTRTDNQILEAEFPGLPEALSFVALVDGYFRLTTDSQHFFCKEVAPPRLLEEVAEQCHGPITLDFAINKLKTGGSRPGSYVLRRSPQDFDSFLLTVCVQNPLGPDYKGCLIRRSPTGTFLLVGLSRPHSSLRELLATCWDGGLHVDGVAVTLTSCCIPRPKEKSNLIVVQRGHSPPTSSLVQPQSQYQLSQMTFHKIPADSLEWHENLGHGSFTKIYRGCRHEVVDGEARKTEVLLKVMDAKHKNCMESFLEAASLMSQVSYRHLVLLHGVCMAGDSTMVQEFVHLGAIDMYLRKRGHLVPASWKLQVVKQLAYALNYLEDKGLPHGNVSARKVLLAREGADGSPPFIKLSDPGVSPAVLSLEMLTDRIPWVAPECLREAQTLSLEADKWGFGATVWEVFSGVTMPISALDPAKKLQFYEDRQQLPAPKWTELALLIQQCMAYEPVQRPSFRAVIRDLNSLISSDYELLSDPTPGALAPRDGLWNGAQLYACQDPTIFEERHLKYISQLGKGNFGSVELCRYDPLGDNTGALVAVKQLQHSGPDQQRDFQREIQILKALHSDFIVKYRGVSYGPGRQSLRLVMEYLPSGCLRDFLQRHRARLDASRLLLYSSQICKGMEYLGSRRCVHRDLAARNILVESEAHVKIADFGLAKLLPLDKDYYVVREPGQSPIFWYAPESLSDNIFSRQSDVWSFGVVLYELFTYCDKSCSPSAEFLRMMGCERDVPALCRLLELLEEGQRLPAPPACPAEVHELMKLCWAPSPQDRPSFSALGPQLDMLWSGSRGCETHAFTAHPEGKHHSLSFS
observable: inhibition (%)
// return numeric value only (unit: %, not printed)

Prompt: Which measured inhibition value corresponds to "CN1CCC(C(=O)Nc2n[nH]c3nnc(-c4ccccc4)cc23)CC1" ?
Completion: -1.09

Prompt: Which measured inhibition value corresponds to "CCn1c(-c2nonc2N)nc2c(C#CC(C)(C)O)nc(CN3CCCC3)cc21" ?
Completion: 0.46

Prompt: Which measured inhibition value corresponds to "CS(=O)(=O)CCNCc1nc(-c2ccc3ncnc(Nc4ccc(F)c(Cl)c4)c3c2)cs1" ?
Completion: -0.02

Prompt: Which measured inhibition value corresponds to "COc1cc2ncn(-c3cc(O[C@@H](C)c4ccccc4Cl)c(C(N)=O)s3)c2cc1OC" ?
Completion: -3.05

Prompt: Which measured inhibition value corresponds to "CC(C)=Cc1cccc2c1/C(=N/Nc1ccc(S(N)(=O)=O)cc1)C(=O)N2" ?
Completion: 5.65

###

target: Dual specificity mitogen-activated protein kinase kinase 1 (Homo sapiens); conditions: at 1 µM;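 further: values reported are mean inhibition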
Consider the following molecules; for each one, report its inhibition.
// return numeric value only (unit: %, not printed)

Prompt: Which measured inhibition value corresponds to "Fc1cccc(COc2ccc(Nc3ncnc4sc(-c5cccs5)cc34)cc2Cl)c1" ?
Completion: 4

Prompt: Which measured inhibition value corresponds to "O=C1NC(=O)C(c2cccc(Cl)c2)=C1Nc1ccc(O)c(Cl)c1" ?
Completion: 7.65

Prompt: Which measured inhibition value corresponds to "CCCN1CCC(Oc2cc(Nc3nc(Nc4cccc(F)c4C(N)=O)c4cc[nH]c4n3)c(OC)cc2Cl)CC1" ?
Completion: 20.6

Prompt: Which measured inhibition value corresponds to "CCn1c(-c2nonc2N)nc2c(C#CC(C)(C)O)nc(CN3CCCC3)cc21" ?
Completion: -0.46

Prompt: Which measured inhibition value corresponds to "COc1ccccc1Nc1ncc(-c2ccccc2)o1" ?
Completion: 3.89

Prompt: Which measured inhibition value corresponds to "Nc1nc(-c2ccccn2)c(-c2ccc3ncccc3n2)s1" ?
Completion: 2.78

Prompt: Which measured inhibition value corresponds to "Cn1cc(C=C2C(=O)Nc3cccnc32)c2ccccc21" ?
Completion: 7.29

Prompt: Which measured inhibition value corresponds to "[O-][S+]1CCN(Cc2ccc(-c3ccc4ncnc(Nc5ccc(OCc6ccccc6)c(F)c5)c4c3)o2)CC1" ?
Completion: 3.03

Prompt: Which measured inhibition value corresponds to "CCCN1CCC=C(c2ccc(Nc3nc(Nc4ccccc4C(N)=O)c4cc[nH]c4n3)c(C)c2)C1" ?
Completion: 28.7

Prompt: Which measured inhibition value corresponds to "NCc1ccc(-c2nc(-c3ccc(Cl)c(O)c3)c(-c3ccncc3)[nH]2)cc1" ?
Completion: 2.23

Prompt: Which measured inhibition value corresponds to "CCn1c(-c2nonc2N)nc2cncc(C(=O)N3CCNCC3)c21" ?
Completion: 4.93

Prompt: Which measured inhibition value corresponds to "CCN1CCC(CC(=O)Nc2n[nH]c3nc(-c4cccs4)c(Br)cc23)CC1" ?
Completion: -4.66

Prompt: Which measured inhibition value corresponds to "CCn1c(-c2nonc2N)nc2cnc(Oc3cccc(NC(=O)c4ccc(OCCN5CCOCC5)cc4)c3)cc21" ?
Completion: 3.8

Prompt: Which measured inhibition value corresponds to "COc1cc(C)c(NC(=O)CN(C)C)cc1Nc1nc(Nc2cccc(F)c2C(N)=O)c2cc[nH]c2n1" ?
Completion: 6.41

Prompt: Which measured inhibition value corresponds to "CCc1cccc(NC(=O)Nc2ccc(Oc3ccc4nc(NC(=O)OC)[nH]c4c3)cc2)c1" ?
Completion: 1.44

Prompt: Which measured inhibition value corresponds to "Cc1nnc(-c2ccc(C)c(-c3ccc(C(=O)Nc4cccc(C#N)c4)cc3)c2)o1" ?
Completion: 1.55

Prompt: Which measured inhibition value corresponds to "CCn1c(-c2nonc2N)nc2cncc(C(=O)N3CC[C@H](N)C3)c21" ?
Completion: 6.13

Prompt: Which measured inhibition value corresponds to "O=C(Nc1n[nH]c2nc(-c3ccco3)c(Br)cc12)C1CC1" ?
Completion: 3.63

Prompt: Which measured inhibition value corresponds to "Cc1ccc(NC(=O)c2ccnc(N3CCCC3)c2)cc1-c1ccc(C(=O)NCC2CC2)cc1" ?
Completion: 5.8

Prompt: Which measured inhibition value corresponds to "O=C1Nc2ccc(C(=O)c3ccco3)cc2C1=Cc1cc(Cl)c(O)c(Cl)c1" ?
Completion: 9.42
